target or test system: glycine binding site of the NMDA receptor channel (Rattus norvegicus, UniProt P35439)
Construct: from tissue; host or cells: rat brain cortex and hippocampus membrane homogenate (male Wistar rats)
experimental details: Receptor binding study (glycineB binding site of the NMDA receptor channel), displacement of (3H)-MDL 105.519
measurement conditions: 10 μM of compound, rat brain membrane homogenate (cortex and hippocampus), read-out: Inhibition % (percentage fraction of bound radioactive ligand displaced from its specific binding)
Counter-ions that a name gives are not always drawn.
parameter: inhibition at 10 µM (%)

Example molecules with recorded inhibition at 10 µM:
# molecule, inhibition at 10 µM (%)
rows = [
    ("O=C(O)C(Nc1cc(Cl)cc(Cl)c1)c1cccc2c1sc1ccccc12 (centres unmarked)", 33),
    ("O=C(O)C(Nc1cc(Cl)cc(Cl)c1)c1cccc2c1Sc1ccccc1S2 (centres unmarked) [Example 11, sodium salt]", 25),
    ("O=C(O)C(Nc1cc(Cl)cc(Cl)c1)c1cccc2c1Oc1ccccc1S2 (centres unmarked) [Example 10, sodium salt]", 38),
]

P = CSc1ccc(C(Nc2cc(Cl)cc(Cl)c2)C(=O)O)cc1 (centres unmarked) [Example 13, sodium salt]
Q = CSc1ccccc1C(Nc1cc(Cl)cc(Cl)c1)C(=O)[O-].[Na+] (centres unmarked) [Example 12, sodium salt]
Prompt: Out of P and Q , name the one with the higher inhibition at 10 µM. Give the label under which the chosen entry appears.
Response: P
(P: 83%, Q: 39%)
